- Test system: RPMI-8226 leukemia
- test.details: NCI-60 one-dose screen, 48 h (100 = growth as untreated, 0 = no growth, -100 = all killed)
- condition.parameters: 10 µM unless noted
The panel holds about 83,000 compounds, 20% with a hit somewhere; the sample as a whole holds those more often.
Rule: growth under 30% gives no, otherwise yes.

Before answering, review these 3 worked examples.
molecule: COc1ccc(Oc2ccc(/C=C/C(=O)c3cc4ccccc4oc3=O)cc2)cc1
class.name: yes
//
molecule: Cc1ccc2c(c1)=C/C(=C\c1cc(-c3ccccc3)[nH]c1O)C(=O)N=2
class.name: yes
//
molecule: O=C(NN1C(=O)CSC1c1cccc([N+](=O)[O-])c1)c1ccc(NC(=O)c2ccccn2)cc1 (stereo not given)
class.name: yes

query: Please tell me: is the molecule "CCOC(=O)C/C(=N\Nc1cc(=O)[nH]c2ccc(C)cc12)C(=O)OCC" at or over 30% in terms of growth?
result: yes

query: Does the reported growth for "CCN(CCNc1ccc(C)c2sc3cc(Cl)ccc3c(=O)c12)CC(C)(C)O" fall at or above the 30% mark?
result: yes

query: API: above_or_equal(metric=growth, cutoff=30%) for item "CN1C(=O)/C(=C/c2ccc(C(=O)Nc3ncc(Cc4cccc(C(F)(F)F)c4)s3)cc2)SC1=S"
result: no

query: Could you please find out whether "Cc1cccc(NC(=O)N/C(N)=N/c2nc3ccccc3s2)c1" has growth that meets 30% or exceeds it?
result: no

query: Determine whether this molecule has growth no lower than 30%: "Cn1c(=O)[nH]c(=O)c2nc3c(nc21)-c1ccccc1C3=O"
result: yes

query: Reported growth reaches at least 30% for "COc1ccc(-c2cc(-c3cc(OC)ccc3OC)nc(SCC(C)=O)c2C#N)cc1" ?
result: yes

====

- Test system: OVCAR-3 ovarian
- test.details: NCI-60 one-dose screen, 48 h
- condition.parameters: 10 µM unless noted
Compounds without any hit were thinned out: in the full panel of roughly 83,000, 20% have a hit. Calls of active or inactive are those of the source. The calls were made as follows: active = growth percent below 10; inactive = the rest.
# valid calls are label 1 = active, label 0 = inactive; nothing else

// known answers, use as guide
compound: Cc1cc2oc(/C=C/c3ccccc3)cc(=O)c2c(C)c1Cl
class.name: label 0
//
compound: Cc1ccc(-c2csc(NC(=O)CSc3nc(N)cc(N)n3)n2)cc1
class.name: label 0
//
compound: COC(=O)c1ccc2c(c1)c1c(C)c3cnccc3c(C)c1n2C
class.name: label 1

query: Please share the test call associated with "O=S(O)c1cc(Cl)cc(Cl)c1OCc1ccccc1" .
result: label 0

query: Would you mind telling me which call this test gave COc1ccc(C2CC(n3ccnc3)c3cc(OC)c(OC)c(OC)c32)cc1O (stereo unspecified) ?
result: label 0

query: Please share the test call associated with "COc1ccc(-c2cn(Cc3cc4ccccc4s3)nn2)cc1OCCN1CCCCC1" .
result: label 0

====

- Tested on: RPMI-8226 leukemia
- test.details: NCI-60 one-dose screen, 48 h
- condition.parameters: 10 µM unless noted
- Protocol: Growth inhibition of the RPMI-8226 human tumor cell line is measured as a screen for anti-cancer activity. Cells are grown in 96 well plates and exposed to the test compound for 48 hours. Compounds are tested at a single concentration, which is 10^-5 M for most compounds. The reported endpoint is percent growth (GI% or GIPRCNT), where numbers from 0 - 100% represent growth inhibition, and numbers from -100% - 0 represent cell death. For example, a value of 40 represents 60% growth inhibition. […]
Compounds without any hit were thinned out: in the full panel of roughly 83,000, 20% have a hit. Calls of active or inactive are those of the source. The calls were made as follows: active = growth percent below 10; inactive = the rest.
Use one of these outcomes when replying: active, inactive

compound: CCCC(=O)NC(c1ccc2c(c1)OCO2)c1cc(Cl)c2cccnc2c1O (centres undefined)
class.name: inactive
//
compound: O=C(Nc1ccccc1O)c1ccc(CNc2ccnc(C(F)(F)F)c2)cc1
class.name: active
//
compound: CC/C(=C(/c1ccc(O)cc1)c1ccc(OCCN2CCCCC2)cc1)c1ccc(OC)cc1
class.name: inactive

query: Give the logged outcome of this assay for the following compound: "COc1cc(O)c2c(=O)c3c(CC=C(C)C)cc(OC)c(O)c3oc2c1"
result: inactive

query: Please let me know the test result on file for "COc1ccc(NC(=O)c2ccc(Nc3ncnc4c3cnn4-c3cccc(F)c3)cc2)cc1" .
result: inactive

query: What is the recorded call for this compound in the test? COc1ccc(/C=C/C(c2cc(OC)c(OC)c(OC)c2)n2cncn2)cc1O (centres undefined)
result: inactive

query: // return assay outcome for "COc1ccc(C=Nc2c(C(=O)Nc3cccc(Cl)c3C)sc3nc(C)c(C(=O)/C=C/c4ccc(OC)cc4)cc23)cc1"
result: inactive

query: For "Cc1ccc(-c2csc(NC(=O)CSc3nc(N)cc(N)n3)n2)cc1" , what call appears in the results of this test?
result: inactive

query: Outcome logged for COc1ccc(C2C3=C(COC3=O)N(CCO)c3cc4c(cc32)OCO4)cc1OC (centres undefined) in this assay:
result: inactive

query: Could you kindly confirm the outcome this assay logged for "COc1cc([C@@H](CCO)C[C@H](C)c2ccc3ccccc3c2)cc(OC)c1OC" ?
result: inactive

query: Call for entry "O=C1c2cccnc2C(=O)c2c1c(C(=O)OCCc1ccccn1)c1ccccn21" :
result: active

query: Outcome logged for COc1ccc(C2CC(c3ccccc3)=NN2C(=O)c2cc(OC)c(OC)c(OC)c2)cc1O (centres undefined) in this assay:
result: active

query: For O=C(/C=C/C12c3ccccc3C(c3ccccc31)C1C(=O)NC(=O)C12)c1ccco1 (centres undefined) , which call appears in the assay record?
result: active

query: Please indicate how the test categorized COC12C=C/C(=C(/C(=O)OCc3csc(SC)n3)C(=O)CCCCCCCCC3(OC)C=C/C(=C(/C(=O)OCc4cnc(SC)s4)C(=O)CCCCCCCC1)O3)O2 (centres undefined) .
result: active

query: I would be grateful if you could indicate the recorded call for CCN1C(=O)N(c2ccccc2)C2NC(=S)N(/N=C/C=C/c3ccccc3OC)C21 (centres undefined) .
result: inactive

query: Tell me the recorded outcome of this test for "CCCN(CCSSCCNc1nc(N(C)O)nc(N(C)O)n1)c1nc(N(C)O)nc(N(C)O)n1" .
result: inactive

query: Hello, I am checking results. What call was entered for "COc1ccc(/C=N/NC(=O)Cn2c(-c3ccc(S(C)(=O)=O)cc3)nc3ccccc32)cc1" ?
result: inactive

query: Hey, what did the test say about "O=C(/C=C/c1ccco1)Nc1ncc(Cc2cc(Cl)ccc2Cl)s1" ?
result: inactive

query: Please state the recorded outcome for this compound: "CCOC(=O)c1c(NC(=O)c2ccccc2)sc2c3c(ccc12)OCN(C)C3"
result: active

====

# growth per record follows
- Test system: M14 melanoma
- test.details: NCI-60 one-dose screen, 48 h (100 = growth as untreated, 0 = no growth, -100 = all killed)
- condition.parameters: 10 µM unless noted
Compounds without any hit were thinned out: in the full panel of roughly 83,000, 20% have a hit.
Reply with just the number (in %).

Past entries and their recorded results:
compound: c1cc(OCCN2CCCCC2)ccc1CNc1ccc2nc(CCC3CCCCC3)[nH]c2c1
quantity.unit: %
readout.number: -75

compound: O=S(=O)(Nc1ccc2ccccc2c1)c1ccc(-c2cnc(C3CC3)o2)cc1
quantity.unit: %
readout.number: 19.4

The recorded growth with M14 melanoma for "Cc1cc(C(=O)CCCC(=O)c2cc(C)c(O)c(C)c2)cc(C)c1O" was 98.6

M14 melanoma data for CCOC(=O)CC1CSC(N/N=C/c2ccc(F)c(Br)c2)=N1 (stereo not given) ; its growth: 102

Record "COc1cc2c(cc1-c1c(C)noc1C)ncc1nc(CN3CCOCC3)n([C@H](C)COC(F)F)c12" has M14 melanoma growth equal to 40.1

"CS(=O)(=O)Nc1cc(-c2ccc3ncnc(Nc4ccc(F)c(Cl)c4)c3c2)ccc1Cl" on M14 melanoma gives growth = 46.8

Record "N#Cc1ccccc1-c1ccc(CN2C(=O)S/C(=C\c3ccc(Br)cc3)C2=O)cc1" has M14 melanoma growth equal to 98.2

====

- Test system: HS 578T breast
- test.details: NCI-60 one-dose screen, 48 h (100 = growth as untreated, 0 = no growth, -100 = all killed)
- condition.parameters: 10 µM unless noted
- Description: Growth inhibition of the HS 578T human tumor cell line is measured as a screen for anti-cancer activity. Cells are grown in 96 well plates and exposed to the test compound for 48 hours. Compounds are tested at a single concentration, which is 10^-5 M for most compounds. The reported endpoint is percent growth (GI% or GIPRCNT), where numbers from 0 - 100% represent growth inhibition, and numbers from -100% - 0 represent cell death. For example, a value of 40 represents 60% growth inhibition. […]
This is part of a sample that, as a whole, favours compounds with a hit. Of some 83,000 tested, about 20% had one in any assay.
measured.parameter: growth (%)
Numeric answer only, unit % assumed.

Please review the following examples before continuing.
molecule: CC(C)C1C2=C(NCCN1C(=O)c1ccncc1)C(C)(C)N(Cc1ccccc1)C2=O (configuration not stated)
target.of.assay: HS 578T breast
quantity.unit: %
growth: 109
//
molecule: N#Cc1c(-c2cccc(Cl)c2)cc(-c2cccnc2)[nH]c1=O
target.of.assay: HS 578T breast
quantity.unit: %
growth: 62.7
//
molecule: COc1ccc(-c2nc(SCC(=O)Nc3nc4ccc(C)cc4s3)[nH]c(=O)c2C#N)cc1OC
target.of.assay: HS 578T breast
quantity.unit: %
growth: 87.4
//
molecule: COc1ccc(C(c2cc(OC)c(OC)c(OC)c2)N2CCCCC2)cc1 (configuration not stated)
target.of.assay: HS 578T breast
quantity.unit: %
growth: 16.6
//
molecule: C=C1C(=O)O[C@H]2[C@H]1CC/C(CNC(=O)Cc1c[nH]c3ccccc13)=C\CC[C@@]1(C)O[C@@H]21
target.of.assay: HS 578T breast
quantity.unit: %
growth: 78.1
//
molecule: CC(C)n1c2ccc(Br)cc2c2c3c(c4c5ccccc5ccc4c21)C(=O)NC3=O
target.of.assay: HS 578T breast
quantity.unit: %
growth: 108

Looking up "O=C1C=C(SCCO)C(=O)c2ccccc21" , I found its growth recorded as 2.8

The reported growth of the molecule "CC(=O)c1c(Nc2cccc(F)c2)[nH]c2c(Cl)cc(Cl)c(Cl)c2c1=O" was 4.68

Looking up "Nc1nc(N(Cc2ccccc2)c2ccccc2)c2cn[nH]c2n1" , I found its growth recorded as 58.2

In plain terms, "COc1ccc(/C=C(\C(=O)NCc2cccnc2)S(=O)(=O)c2ccccc2)cc1OC" has a documented growth of 59.3

Please fill in: growth reported for "C[C@@H]1NC(=O)[C@H](Cc2ccccc2)N(Cc2cccnc2)C1=O" = 94.3

Lab note: O=C1CCCC1[n+]1ccccc1 (configuration not stated) gave growth of 114
